Biological target: NEDD8-activating enzyme E1 regulatory subunit (Homo sapiens)
Sequence (whole entry): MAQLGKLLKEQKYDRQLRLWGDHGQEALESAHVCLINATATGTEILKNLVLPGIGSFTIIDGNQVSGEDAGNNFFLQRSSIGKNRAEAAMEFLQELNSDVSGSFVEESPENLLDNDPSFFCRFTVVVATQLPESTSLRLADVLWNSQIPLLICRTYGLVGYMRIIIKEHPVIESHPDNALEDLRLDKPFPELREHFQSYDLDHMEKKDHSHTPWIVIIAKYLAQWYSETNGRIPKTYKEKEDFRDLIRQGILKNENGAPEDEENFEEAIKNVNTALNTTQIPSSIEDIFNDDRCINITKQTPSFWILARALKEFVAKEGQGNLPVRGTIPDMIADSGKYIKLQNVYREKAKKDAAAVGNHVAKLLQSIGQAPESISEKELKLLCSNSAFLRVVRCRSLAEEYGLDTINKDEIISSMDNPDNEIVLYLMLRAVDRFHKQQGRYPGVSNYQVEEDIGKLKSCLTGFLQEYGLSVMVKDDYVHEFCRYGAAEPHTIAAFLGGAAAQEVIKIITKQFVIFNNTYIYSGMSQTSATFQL
Test: Inhibition of NAE (unknown origin)-mediated neddylation assessed as suppression of cullin1-Nedd8 adduct formation at 25 uM preincubated for 10 mins followed by ATP addition and measured after 30 mins by immunoblot analysis relative to control
Details: time 40.0 min
readout_name: inhibition (%)

1: CCCC(=O)N(Cc1ccc(-c2ccccc2-c2nnn[nH]2)cc1)c1ccccc1C(=O)OC(C)OC(=O)OC1CCCCC1 (stereo unspecified)
2: CCOc1nc2cccc(C(=O)NCCc3ccc(Br)cc3)c2n1Cc1ccc(-c2ccccc2-c2nnn[nH]2)cc1
Query block: Identify the entry with the larger inhibition. Options: 1 and 2 Identify your pick by its label.
Result block: 2
(2: 66.1%, 1: 32.6%)

---

Target: NEDD8-activating enzyme E1 regulatory subunit (Homo sapiens) (UniProt Q13564)
Assay: Inhibition of NAE (unknown origin)-mediated neddylation assessed as suppression of cullin1-Nedd8 adduct formation at 25 uM preincubated for 10 mins followed by ATP addition and measured after 30 mins by immunoblot analysis relative to control
Conditions: time 40.0 min
readout_name: inhibition (%)

Solved cases (2 shown):
* CCOc1nc2cc(C(=O)OC(C)OC(=O)OC3CCCCC3)ccc2n1Cc1ccc(-c2ccccc2-c2nnn[nH]2)cc1 (stereo not drawn) | 44.7
* CCOc1nc2cccc(C(=O)OC(C)OC(=O)OC3CCCCC3)c2n1Cc1ccc(-c2ccccc2-c2nn[nH]n2)cc1 (stereo not drawn) | 87.8

1: CCOc1nc2cccc(C(=O)Nc3ccc4c(c3)OCO4)c2n1Cc1ccc(-c2ccccc2-c2nnn[nH]2)cc1
2: CCOc1nc2ccccc2n1Cc1ccc(-c2ccccc2-c2nn[nH]n2)cc1
Query block: I'd appreciate it if you could identify which of 1 and 2 has the greater inhibition. Label of pick, please.
Result block: 1
(1: 34.9%, 2: 18.9%)

A: CCOc1nc2cccc(C(=O)NCc3ccco3)c2n1Cc1ccc(-c2ccccc2-c2nnn[nH]2)cc1
B: CCOc1nc2cccc(C(=O)NCCCCc3ccccc3)c2n1Cc1ccc(-c2ccccc2-c2nnn[nH]2)cc1
Query block: Recorded inhibition values differ for A and B ; which one is higher? To answer, give the label that identifies your chosen option.
Result block: B
(B: 64.6%, A: 37.5%)

---

Biological target: NEDD8-activating enzyme E1 catalytic subunit (Homo sapiens, UniProt Q8TBC4)
Sequence (Q8TBC4 whole entry): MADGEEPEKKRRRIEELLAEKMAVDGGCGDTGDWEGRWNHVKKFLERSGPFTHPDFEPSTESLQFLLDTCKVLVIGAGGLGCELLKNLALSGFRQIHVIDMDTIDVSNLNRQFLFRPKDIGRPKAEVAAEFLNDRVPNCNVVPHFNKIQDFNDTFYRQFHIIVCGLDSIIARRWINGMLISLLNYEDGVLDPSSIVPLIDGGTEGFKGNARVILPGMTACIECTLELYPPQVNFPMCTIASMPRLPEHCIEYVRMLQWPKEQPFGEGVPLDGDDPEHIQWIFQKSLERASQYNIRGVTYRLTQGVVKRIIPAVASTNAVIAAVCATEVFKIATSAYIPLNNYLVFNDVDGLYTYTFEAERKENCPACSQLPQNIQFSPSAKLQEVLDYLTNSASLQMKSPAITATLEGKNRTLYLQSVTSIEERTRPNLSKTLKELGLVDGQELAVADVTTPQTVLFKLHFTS
Test: Inhibition of NAE (unknown origin)-mediated neddylation assessed as suppression of cullin1-Nedd8 adduct formation preincubated for 10 mins followed by ATP addition and measured after 30 mins by immunoblot analysis
readout_name: IC50 (µM)

* CCOc1nc2cccc(C(=O)NCCc3ccc(Cl)cc3Cl)c2n1Cc1ccc(-c2ccccc2-c2nnn[nH]2)cc1 | 5.51

a: CCOc1nc2cccc(C(=O)OC(C)OC(=O)OC3CCCCC3)c2n1Cc1ccc(-c2ccccc2-c2nnn[nH]2)cc1 (centres undefined) [CANDESARTAN CILEXETIL]
b: CCOc1nc2cccc(C(=O)NCCc3cc(Cl)ccc3Cl)c2n1Cc1ccc(-c2ccccc2-c2nnn[nH]2)cc1
c: CCOc1nc2cccc(C(=O)NCCc3c[nH]c4ccccc34)c2n1Cc1ccc(-c2ccccc2-c2nnn[nH]2)cc1
Query block: Kindly order the items shown according to IC50, from the highest value down. Order the labels as requested and give them as your answer.
Result block: a, c, b

---

Assay: Cytotoxicity against human […] cells incubated for 48 hrs by CCK-8 assay
Type: cell-based
readout_name: IC50 (µM)
Please reply with the bare figure in µM and do not write the unit itself.

- CCOc1nc2cccc(C(=O)NCCc3ccc(Cl)cc3Cl)c2n1Cc1ccc(-c2ccccc2-c2nnn[nH]2)cc1: 76.1

Just so you know, measured IC50 for "NS(=O)(=O)OC[C@@H]1C[C@@H](n2ccc3c(N[C@H]4CCc5ccccc54)ncnc32)C[C@@H]1O" came out at 4.03

Measured IC50 of "CCOc1nc2cccc(C(=O)NCCc3c[nH]c4ccccc34)c2n1Cc1ccc(-c2ccccc2-c2nnn[nH]2)cc1" : 44.7

Item: "CCOc1nc2cccc(C(=O)NCCc3cc(Cl)ccc3Cl)c2n1Cc1ccc(-c2ccccc2-c2nnn[nH]2)cc1" | IC50: 64.9

Sure, the documented IC50 for CCOc1nc2cccc(C(=O)OC(C)OC(=O)OC3CCCCC3)c2n1Cc1ccc(-c2ccccc2-c2nn[nH]n2)cc1 (stereo not given) is 82.7

---

Biological target: NEDD8-activating enzyme E1 regulatory subunit (Homo sapiens) (UniProt Q13564)
Sequence (whole entry): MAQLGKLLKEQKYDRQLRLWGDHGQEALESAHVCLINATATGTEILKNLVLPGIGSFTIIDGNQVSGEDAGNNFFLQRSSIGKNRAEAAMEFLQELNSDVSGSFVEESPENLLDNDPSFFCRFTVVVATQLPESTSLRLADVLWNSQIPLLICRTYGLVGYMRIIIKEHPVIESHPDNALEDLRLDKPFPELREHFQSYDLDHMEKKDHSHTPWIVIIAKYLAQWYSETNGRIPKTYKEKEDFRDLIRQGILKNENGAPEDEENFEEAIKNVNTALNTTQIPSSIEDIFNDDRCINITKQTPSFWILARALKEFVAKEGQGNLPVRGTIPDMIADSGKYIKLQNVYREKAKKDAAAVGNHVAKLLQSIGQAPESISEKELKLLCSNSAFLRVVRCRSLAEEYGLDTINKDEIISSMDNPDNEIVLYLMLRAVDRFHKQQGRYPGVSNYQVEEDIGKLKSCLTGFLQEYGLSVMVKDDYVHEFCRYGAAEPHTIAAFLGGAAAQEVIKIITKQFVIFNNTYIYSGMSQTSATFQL
Test: Inhibition of NAE (unknown origin)-mediated neddylation assessed as suppression of cullin1-Nedd8 adduct formation at 25 uM preincubated for 10 mins followed by ATP addition and measured after 30 mins by immunoblot analysis relative to control
Conditions: time 40.0 min
readout_name: inhibition (%)

P: CCOc1nc2ccc(C(=O)OC(C)OC(=O)OC3CCCCC3)cc2n1Cc1ccc(-c2ccccc2-c2nnn[nH]2)cc1 (stereo not drawn)
Q: NS(=O)(=O)OC[C@@H]1C[C@@H](n2ccc3c(N[C@H]4CCc5ccccc54)ncnc32)C[C@@H]1O
Query block: Hi there, can you help? I need to know whether P or Q has lower measured inhibition. Mark your selection by writing its label.
Result block: P
(P: 43.2%, Q: 90.5%)

---

Biological target: NEDD8-activating enzyme E1 regulatory subunit (Homo sapiens) (UniProt Q13564)
Sequence (whole entry): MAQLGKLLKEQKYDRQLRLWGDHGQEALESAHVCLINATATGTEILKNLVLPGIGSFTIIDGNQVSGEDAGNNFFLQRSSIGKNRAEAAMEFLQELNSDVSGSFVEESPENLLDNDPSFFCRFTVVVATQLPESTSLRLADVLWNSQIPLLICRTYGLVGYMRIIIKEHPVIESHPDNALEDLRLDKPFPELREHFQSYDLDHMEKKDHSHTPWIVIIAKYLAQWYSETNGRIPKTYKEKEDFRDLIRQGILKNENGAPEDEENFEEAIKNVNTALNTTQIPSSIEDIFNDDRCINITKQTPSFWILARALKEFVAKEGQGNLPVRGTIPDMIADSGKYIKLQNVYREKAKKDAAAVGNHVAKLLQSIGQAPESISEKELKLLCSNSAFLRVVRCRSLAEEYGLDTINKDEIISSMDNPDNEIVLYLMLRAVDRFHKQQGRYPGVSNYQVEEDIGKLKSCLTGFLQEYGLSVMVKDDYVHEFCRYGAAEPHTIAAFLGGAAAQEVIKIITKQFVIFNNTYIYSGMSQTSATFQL
Experiment: Inhibition of NAE (unknown origin)-mediated neddylation assessed as suppression of cullin1-Nedd8 adduct formation at 25 uM preincubated for 10 mins followed by ATP addition and measured after 30 mins by immunoblot analysis relative to control
Details: time 40.0 min
readout_name: inhibition (%)

* CCOc1nc2cccc(C(=O)Nc3ccncc3)c2n1Cc1ccc(-c2ccccc2-c2nnn[nH]2)cc1 | 39.8
* CCOc1nc2cccc(C(=O)NC3CCCC3)c2n1Cc1ccc(-c2ccccc2-c2nnn[nH]2)cc1 | 39.7
* CCOc1nc2cccc(C(=O)NCCc3c(Cl)cccc3Cl)c2n1Cc1ccc(-c2ccccc2-c2nnn[nH]2)cc1 | 86.7
* CCOc1nc2cccc(C(=O)Nc3ccc(S(N)(=O)=O)cc3)c2n1Cc1ccc(-c2ccccc2-c2nnn[nH]2)cc1 | 60.9
* CCOc1nc2cccc(C(=O)NCCc3ccc(Cl)cc3)c2n1Cc1ccc(-c2ccccc2-c2nnn[nH]2)cc1 | 47.6
* CCOc1nc2cccc(C(=O)NCc3ccc4c(c3)OCO4)c2n1Cc1ccc(-c2ccccc2-c2nnn[nH]2)cc1 | 47.9

I: CCOc1nc2cccc(C(=O)NCCc3ccccc3Cl)c2n1Cc1ccc(-c2ccccc2-c2nnn[nH]2)cc1
II: CCOc1nc2cccc(C(=O)NOCc3ccccc3)c2n1Cc1ccc(-c2ccccc2-c2nnn[nH]2)cc1
III: CCOc1nc2cccc(C(=O)NCCc3cc(Cl)ccc3Cl)c2n1Cc1ccc(-c2ccccc2-c2nnn[nH]2)cc1
IV: CCOc1nc2cccc(C(=O)Nc3ccc(OC)cc3)c2n1Cc1ccc(-c2ccccc2-c2nnn[nH]2)cc1
Query block: Ascending by inhibition, please. Respond with an ordered listing of the labels, as requested.
Result block: IV, II, I, III
